methodSummary: Plasma concentration in male C57BL/6 mouse at 10 mg/kg, ip administered as single dose measured at 3 hrs measured by LC/MS-MS analysis
Assay type: ADME, organism-based
The entries below are paired with their reported concentration at 3 h.

structureSmilesString	concentration at 3 h / ng/mL
Cl.[2H]C1([2H])Oc2ccc(Nc3nc(-c4c(C)nc5ccccn45)cs3)cc2O1	74.9
Cc1nc2ccccn2c1-c1csc(Nc2ccc3c(c2)OC(F)(F)O3)n1.Cl	1.43

---

methodSummary: Brain concentration in male C57BL/6 mouse at 10 mg/kg, ip administered as single dose measured at 0.08 hrs measured by LC/MS-MS analysis
Format: ADME, organism-based
experimentalParameters: read-out: Drug uptake
Reported concentration at 0.08 h values are given for each entry in this list.
measurementKind: concentration at 0.08 h (ng/g)

structureSmilesString	measurementKind	unitAbbreviation	reported
Cc1nc2ccccn2c1-c1csc(Nc2ccc3c(c2)OC(F)(F)O3)n1.Cl	concentration at 0.08 h	ng/g	558
Cl.[2H]C1([2H])Oc2ccc(Nc3nc(-c4c(C)nc5ccccn45)cs3)cc2O1	concentration at 0.08 h	ng/g	288

---

methodSummary: Ratio of drug level in male C57BL/6 mouse brain to plasma at 10 mg/kg, iv administered as single dose measured at 1 hr measured by LC/MS-MS analysis
Type: ADME, organism-based
experimentalParameters: read-out: BPR

structureSmilesString	Kp at 1 h
Cc1nc2ccccn2c1-c1csc(Nc2ccc3c(c2)OC(F)(F)O3)n1.Cl	1.67

---

methodSummary: Plasma concentration in male C57BL/6 mouse at 10 mg/kg, iv administered as single dose measured at 1 hr measured by LC/MS-MS analysis
Assay type: ADME, organism-based

structureSmilesString	concentration at 1 h
Cc1nc2ccccn2c1-c1csc(Nc2ccc3c(c2)OC(F)(F)O3)n1.Cl	80.7 ng/mL

---

concentration at 0.35 h for assorted molecules
methodSummary: Plasma concentration in male C57BL/6 mouse at 10 mg/kg, ip administered as single dose measured at 0.35 hrs measured by LC/MS-MS analysis
Assay type: ADME, organism-based
measurementKind: concentration at 0.35 h (ng/mL)

structureSmilesString	measurementKind	reported
Cc1nc2ccccn2c1-c1csc(Nc2ccc3c(c2)OC(F)(F)O3)n1.Cl	concentration at 0.35 h	426
Cl.[2H]C1([2H])Oc2ccc(Nc3nc(-c4c(C)nc5ccccn45)cs3)cc2O1	concentration at 0.35 h	458

---

methodSummary: Brain concentration in male C57BL/6 mouse at 10 mg/kg, iv administered as single dose measured at 1 hr measured by LC/MS-MS analysis
Assay type: ADME, organism-based
experimentalParameters: read-out: Drug uptake
measurementKind: concentration at 1 h (ng/g)

structureSmilesString	reported
Cc1nc2ccccn2c1-c1csc(Nc2ccc3c(c2)OC(F)(F)O3)n1.Cl	225

---

methodSummary: Ratio of drug level in male C57BL/6 mouse brain to plasma at 10 mg/kg, ip administered as single dose measured at 0.35 hrs measured by LC/MS-MS analysis
Format: ADME, organism-based
experimentalParameters: read-out: BPR

structureSmilesString	Kp at 0.35 h
Cc1nc2ccccn2c1-c1csc(Nc2ccc3c(c2)OC(F)(F)O3)n1.Cl	0.96

---

methodSummary: Ratio of drug level in male C57BL/6 mouse brain to plasma at 10 mg/kg, iv administered as single dose measured at 0.35 hrs measured by LC/MS-MS analysis
Format: ADME, organism-based
experimentalParameters: read-out: BPR

structureSmilesString	Kp at 0.35 h
Cc1nc2ccccn2c1-c1csc(Nc2ccc3c(c2)OC(F)(F)O3)n1.Cl	1.83

---

methodSummary: Brain concentration in male C57BL/6 mouse at 10 mg/kg, po administered as single dose measured at 0.35 hrs measured by LC/MS-MS analysis
Format: ADME, organism-based
experimentalParameters: read-out: Drug uptake
measurementKind: concentration at 0.35 h (ng/g)

structureSmilesString	unitAbbreviation	reported
Cl.[2H]C1([2H])Oc2ccc(Nc3nc(-c4c(C)nc5ccccn45)cs3)cc2O1	ng/g	53

---

methodSummary: Brain concentration in male C57BL/6 mouse at 10 mg/kg, iv administered as single dose measured at 0.35 hrs measured by LC/MS-MS analysis
Type: ADME, organism-based
experimentalParameters: read-out: Drug uptake

structureSmilesString	unitAbbreviation	concentration at 0.35 h
Cc1nc2ccccn2c1-c1csc(Nc2ccc3c(c2)OC(F)(F)O3)n1.Cl	ng/g	514

---

methodSummary: Brain concentration in male C57BL/6 mouse at 10 mg/kg, iv administered as single dose measured at 3 hrs measured by LC/MS-MS analysis
Assay type: ADME, organism-based
experimentalParameters: read-out: Drug uptake

structureSmilesString	unitAbbreviation	concentration at 3 h
Cc1nc2ccccn2c1-c1csc(Nc2ccc3c(c2)OC(F)(F)O3)n1.Cl	ng/g	9.01

---

methodSummary: Ratio of drug level in male C57BL/6 mouse brain to plasma at 10 mg/kg, ip administered as single dose measured at 3 hrs measured by LC/MS-MS analysis
Type: ADME, organism-based
experimentalParameters: read-out: BPR
measurementKind: Kp at 3 h

structureSmilesString	reported
Cc1nc2ccccn2c1-c1csc(Nc2ccc3c(c2)OC(F)(F)O3)n1.Cl	1.6

---

methodSummary: Brain concentration in male C57BL/6 mouse at 10 mg/kg, iv administered as single dose measured at 0.08 hrs measured by LC/MS-MS analysis
Assay type: ADME, organism-based
experimentalParameters: read-out: Drug uptake

structureSmilesString	concentration at 0.08 h
Cc1nc2ccccn2c1-c1csc(Nc2ccc3c(c2)OC(F)(F)O3)n1.Cl	1660 ng/g

---

methodSummary: Brain concentration in male C57BL/6 mouse at 10 mg/kg, ip administered as single dose measured at 3 hrs measured by LC/MS-MS analysis
Format: ADME, organism-based
experimentalParameters: read-out: Drug uptake
Some compounds, each annotated with its measured concentration at 3 h.

structureSmilesString	unitAbbreviation	concentration at 3 h
Cc1nc2ccccn2c1-c1csc(Nc2ccc3c(c2)OC(F)(F)O3)n1.Cl	ng/g	558
Cl.[2H]C1([2H])Oc2ccc(Nc3nc(-c4c(C)nc5ccccn45)cs3)cc2O1	ng/g	82

---

methodSummary: Plasma concentration in male C57BL/6 mouse at 10 mg/kg, po administered as single dose measured at 6 hrs measured by LC/MS-MS analysis
Type: ADME, organism-based

structureSmilesString	concentration at 6 h
Cc1nc2ccccn2c1-c1csc(Nc2ccc3c(c2)OC(F)(F)O3)n1.Cl	2.5 ng/mL
Cl.[2H]C1([2H])Oc2ccc(Nc3nc(-c4c(C)nc5ccccn45)cs3)cc2O1	45.5 ng/mL
